biological target: T1, VEGFR-2-Fc (UniProt P35968 20-322); experiment: receptor-Fc IP
T1 construct: domain: first 3 Ig domains; conditioned supernatant of 293T cells; also called VEGFR-2-Fc fusion protein; not shown: Fc fragment of the pIg vector
T1 sequence (P35968 20-322): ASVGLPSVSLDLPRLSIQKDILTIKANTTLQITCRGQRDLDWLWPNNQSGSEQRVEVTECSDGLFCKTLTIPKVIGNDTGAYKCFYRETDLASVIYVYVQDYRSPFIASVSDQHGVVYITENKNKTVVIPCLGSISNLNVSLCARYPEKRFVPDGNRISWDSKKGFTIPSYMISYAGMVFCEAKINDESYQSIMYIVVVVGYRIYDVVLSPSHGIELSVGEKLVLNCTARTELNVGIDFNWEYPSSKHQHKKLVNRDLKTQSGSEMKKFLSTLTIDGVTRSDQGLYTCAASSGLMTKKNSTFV

[
  {
    "BINDER": "22-4 (ligand) AHYNTEILKSIDNEWRKTQCMPREVCIDVGKEFGVATNTFFKPPCVSVYRCGGCCNSEGLQCMNTSTSYLSKTLFEIKPHQGQHIGEMSFLQHNKCECRPKKD",
    "binding result": "binds"
  },
  {
    "BINDER": "22-12 (ligand) AHYNTEILKSIDNEWRKTQCMPREVCIDVGKEFGVATNTFFKPPCVSVYRCGGCCNSEGLQCMNTSTSYLSKTLFEITVPLSQGPKPVTISFLQHNKCECRPKKD",
    "binding result": "binds"
  },
  {
    "BINDER": "33-1 (ligand) GQNHHEVVKSIDNEWRKTQCMPIETLVDIFQEYPDEIEYIFKPPCVSVYRCGGCCNDEGLECVPTEESNITMQIMRIKPHQGQHIGEMSFLQHNKCECRPKKD",
    "binding result": "binds"
  }
]
